test.system: T1, human RANK-L (human, UniProt O14788 140-317, limits assumed)
T1 construct: Soluble protein, used coated, biotinylated or labelled in ELISA, AlphaScreen, FMAT and Biacore; also called hRANK-L; soluble human RANK-L
T1 sequence (looked up): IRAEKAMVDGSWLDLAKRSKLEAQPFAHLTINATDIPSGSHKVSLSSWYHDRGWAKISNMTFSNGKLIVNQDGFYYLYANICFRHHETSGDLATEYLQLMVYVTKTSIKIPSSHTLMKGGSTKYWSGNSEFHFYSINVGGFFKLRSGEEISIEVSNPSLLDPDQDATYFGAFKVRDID
assay.name: ELISA (ED50), biotin-hRANK-L on neutravidin
recorded.metric: pEC50
The meaning of pEC50 here: minus log10 of the concentration in molar units.

Observe how each entry below is paired with its result.
{"binder": "RANKL18 (VHH, not shown: small tags and cut ends) VHH: EVQLVESGGGLVQAGGSLRLSCAASGRTFSRSAMGWFRQAPGKEREFVGFITGSGGTTYYGESVKGRFTISRDNAQNPVYLQMNSLKPEDTAVYYCGVYRRTYISSTYSESSEYDYWGQGTQVTVSS", "pEC50": 9.62}
{"binder": "RANKL11 (VHH, not shown: c-myc and His6 tags) VHH: EVQLVESGGGLVQAGGSLRLSCAASGRTFSSKTMGWFRQPPGNEREFVAAITPTSRTTYYADSVKGRFTISRDNAKNTVSLQMNSLKFEDTAAYYCVAVRRYGSPPHDGSSYEYWGQGTQVTVSS", "pEC50": 9.29}
{"binder": "RANKL4 (VHH, not shown: c-myc and His6 tags) VHH: KVQLVESGGGLVQTGDSLRLSCAASGRAIGSYAMGWFRQAPGKEREFVAVINYRGSSLKYADRVKGRFTISRDNAKNMVYLQMNSLKPDDTAVYYCAAQTSGADFGTTPQRYTYWGQGTQVTVSS", "pEC50": 9.42}
{"binder": "RANKL21 (VHH, not shown: c-myc and His6 tags) VHH: EVQLVESGGGLVQAGGSLRLSCVASRRTFNSYAVGWFRQVPGEERDFVAAISTGSVTIYADSVKGRFTISRDNAKNTVYLQMNSLKPEDTAVYYCAAGNREPYLRQYTASNPYDYWGQGTQVTVSS", "pEC50": 9.06}
{"binder": "RANKL23 (VHH, also called 9H5; not shown: c-myc and His6 tags) VHH: EVQLVESGGGLVQAGGSLRLSCAASGLTTVYTMAWFRQAPGKEREFVAAITRSGKTTYYADSVKGRFTISRDNAKNTVNLQMNSLKPDDTAVYYCAAKALLGMTNPAGYEYWGQETQVTVSS", "pEC50": 9.17}

Now consider the entry below.
Note to self: pEC50 recorded for RANKL8 (VHH, not shown: c-myc and His6 tags) VHH: EVQLVESGGGSVQPGGSLRLSCAASGGTFSRYAMGWFRQAPGKEREFVSAISVGGTYQYYVDSVKGRFTISRDNAESTVYLQMNSLKPEDTAVYYCAGDASPYGYLREYTATRFDYWGQGTQVTVSS was 9.19
